Recorded values, source patent US11090319B2.

Please respond with reported IC50 for every item in the list.
Target: various β-lactamases (bacterial lysates) (Klebsiella pneumoniae, UniProt Q9F663)
Sequence (Q9F663 whole entry, looked up): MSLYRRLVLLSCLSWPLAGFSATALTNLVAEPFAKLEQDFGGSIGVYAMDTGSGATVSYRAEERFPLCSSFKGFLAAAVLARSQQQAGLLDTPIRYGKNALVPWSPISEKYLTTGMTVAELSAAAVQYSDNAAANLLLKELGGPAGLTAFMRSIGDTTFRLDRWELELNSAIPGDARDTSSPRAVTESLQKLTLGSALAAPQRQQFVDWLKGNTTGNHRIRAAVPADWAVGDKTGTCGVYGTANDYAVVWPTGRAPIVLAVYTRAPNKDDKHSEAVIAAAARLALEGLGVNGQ
Experiment: biochemical
Type: biochemical
Settings: lysate KP1004 KPC-2; aztreonam cleavage; read-out: AZT IC50 KP1004 KPC-2 (converted)

Please give the measured IC50 for this compound: NC(Cc1cccnc1)C(=O)N[C@H]1CC[C@@H](CC(=O)O)OB1O (stereo partly shown)
< 1560 nM

Using the record for NCCSCC(=O)N[C@H]1CC[C@@H](CC(=O)O)OB1O , report its IC50.
< 1720 nM

Field request: IC50 | item: O=C(O)C[C@@H]1CC[C@H](NC(=O)Cn2ccnc2-c2ccccc2)B(O)O1
< 1400 nM

Recorded IC50 for O=C(O)C[C@@H]1CC[C@H](NC(=O)C[C@H]2CCCCN2)B(O)O1 , please?
< 1680 nM

Recorded IC50 of N[C@H](C(=O)N[C@H]1CC[C@@H](CC(=O)O)OB1O)c1ccccc1 , please.
1630 to 6530 nM

Name the recorded IC50 for O=C(O)C[C@@H]1CC[C@H](NC(=O)Cc2cccnc2)B(O)O1 .
< 1710 nM

Any idea what IC50 was measured for CCOC(=O)C[C@@H]1CC[C@H](NC(=O)Cc2cccs2)B(O)O1 ?
1540 to 6150 nM

Please give the measured IC50 for this compound: O=C(O)CC1CCC[C@H](NC(=O)Cc2cccs2)B(O)O1 (stereo partly shown)
1610 to 6430 nM

So what's the measured IC50 for this one? NC1(CC(=O)N[C@H]2CC[C@@H](CC(=O)O)OB2O)CCCCC1
< 1600 nM

Given the compound O=C(O)C[C@@H]1CC[C@H](NC(=O)CCc2nnc(-c3ccccc3)o2)B(O)O1 , what is its reported IC50?
< 1340 nM

* * *

Target: various β-lactamases (bacterial lysates) (Escherichia coli, UniProt Q53TY8)
Sequence (Q53TY8 entry or part of it): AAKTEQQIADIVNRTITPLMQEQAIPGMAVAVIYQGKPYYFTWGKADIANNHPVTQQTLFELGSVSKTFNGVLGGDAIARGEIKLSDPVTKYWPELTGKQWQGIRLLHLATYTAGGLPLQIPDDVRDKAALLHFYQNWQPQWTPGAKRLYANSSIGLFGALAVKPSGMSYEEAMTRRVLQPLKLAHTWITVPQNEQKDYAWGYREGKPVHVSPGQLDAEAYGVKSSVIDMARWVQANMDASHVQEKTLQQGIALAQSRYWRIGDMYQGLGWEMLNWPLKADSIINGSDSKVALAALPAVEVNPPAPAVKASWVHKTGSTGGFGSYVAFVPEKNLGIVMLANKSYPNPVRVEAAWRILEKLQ
Assay: Inhibition of nitrocefin cleavage by bacterial lysates, Table 11
Format: biochemical
Conditions: lysate EC1010 pAmpC (CMY-6), read-out: NCF IC50 EC1010 pAmpC (CMY-6)
pIC50: −log10 of the molar value.
Please respond with reported pIC50 for every item in the list.

Param readout= pIC50; system= various β-lactamases (bacterial lysates) (Escherichia coli, UniProt Q53TY8); entry= O=C(O)C[C@@H]1CC[C@H](NC(=O)Cn2ccnc2-c2ccccc2)B(O)O1 [Compound 54] ; returns value.
5.25 to 5.85

Request body: readout pIC50, system various β-lactamases (bacterial lysates) (Escherichia coli, UniProt Q53TY8), query Nc1nc(CC(=O)N[C@H]2CC[C@@H](CC(=O)O)OB2O)cs1 [Compound 39] . Return the value.
< 5.19

Recorded pIC50 for Nc1nc(/C(=N/OCc2cc(=O)c(O)cn2O)C(=O)N[C@H]2CC[C@@H](CC(=O)O)OB2O)cs1 [Compound 62] with various β-lactamases (bacterial lysates) (Escherichia coli, UniProt Q53TY8), please?
< 5.38

Can you look up pIC50 on various β-lactamases (bacterial lysates) (Escherichia coli, UniProt Q53TY8) for O=C(O)CC1CC[C@H](NC(=O)C2CC2)B(O)O1 (some centres unmarked) [Compound 4] ?
< 5.08

Fill in the recorded pIC50 for this compound, with various β-lactamases (bacterial lysates) (Escherichia coli, UniProt Q53TY8) as test system: O=C(O)C[C@@H]1CC[C@H](NC(=O)Cc2ccccc2)B(O)O1 [Compound 6]
< 5.16

Form field: pIC50 recorded for O=C(O)C[C@@H]1CC[C@H](NC(=O)Cc2cccs2)B(O)O1 [Compound 5] with various β-lactamases (bacterial lysates) (Escherichia coli, UniProt Q53TY8) (enter value)
< 5.17

Could you share what pIC50 was measured for CC(C)(O/N=C(\C(=O)N[C@H]1CC[C@@H](CC(=O)O)OB1O)c1csc(N)n1)C(=O)O [Compound 36] , tested on various β-lactamases (bacterial lysates) (Escherichia coli, UniProt Q53TY8)?
< 5.33

Value wanted: pIC50 (various β-lactamases (bacterial lysates) (Escherichia coli, UniProt Q53TY8)) of entry CO/N=C(\C(=O)N[C@H]1CC[C@@H](CC(=O)O)OB1O)c1csc(N)n1 [Compound 40]
5.25 to 5.85
